Let's go through some recorded Ki values for Prothrombin (Homo sapiens) together.
reported_metric: Ki (nM)

[[record]]
compound_string = "CN(CC(=O)N[C@@H](CCCCN)C(=O)C(=O)NCCN1CCOCC1)C(=O)c1ccccc1Sc1ccccc1C#N"
reported_metric = "Ki"
measured = 8700


I: CN(CC(=O)N[C@@H](CCCCN)B(O)O)C(=O)c1ccccc1Cc1ccccc1
II: CN(CC(=O)N[C@@H](CCCCN)C(=O)C(=O)NCc1ccccn1)C(=O)c1ccccc1Sc1ccccc1C#N
III: CN(CC(=O)N[C@@H](CCCCN)C(=O)C(=O)Nc1cccc(N)c1)C(=O)c1ccccc1Sc1ccccc1C#N
IV: CN(CC(=O)N[C@@H](CCCCN)C(=O)C(=O)Nc1ccc(Oc2cccc(N)c2)cc1)C(=O)c1ccccc1Sc1ccccc1C#N
Please list these compounds in decreasing order of Ki. # the answer lists labels in the order requested
II, III, IV, I

* * *

target: Coagulation factor X (Homo sapiens)
Sequence (P00742 41-179 limits assumed): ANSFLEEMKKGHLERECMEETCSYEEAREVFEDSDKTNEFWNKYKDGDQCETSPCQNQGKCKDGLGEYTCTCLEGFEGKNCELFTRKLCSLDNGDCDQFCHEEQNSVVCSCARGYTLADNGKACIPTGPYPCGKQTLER
Sequence (P00742 235-488 limits assumed): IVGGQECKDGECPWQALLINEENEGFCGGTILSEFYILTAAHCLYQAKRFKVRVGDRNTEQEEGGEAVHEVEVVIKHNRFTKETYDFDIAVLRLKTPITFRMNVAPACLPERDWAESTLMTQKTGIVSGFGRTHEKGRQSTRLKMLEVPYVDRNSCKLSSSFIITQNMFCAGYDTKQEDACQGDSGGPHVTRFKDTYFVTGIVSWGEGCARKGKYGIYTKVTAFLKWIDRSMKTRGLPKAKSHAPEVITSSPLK
pKi: −log10 of the molar value.
reported_metric: pKi

[[record]]
compound_string = "CN(CC(=O)N[C@@H](CCCCN)C(=O)C(=O)Nc1cccc(N)c1)C(=O)c1ccccc1Sc1ccccc1C#N"
measured = 6.92


1: CNC(=O)C(=O)[C@H](CCCCN)NC(=O)CN(C)C(=O)c1ccccc1Sc1ccccc1C#N
2: CN(CC(=O)N[C@@H](CCCCN)B(O)O)C(=O)c1ccccc1S(=O)(=O)c1ccccc1
Hey, which is lower on measured pKi, 1 or 2 ? // output: label of the selected item
2
(2: 5.24, 1: 6.96)

Data origin: ChEMBL document CHEMBL1132908
